- target.desc: T1, ECF04_1609
- T1 chain: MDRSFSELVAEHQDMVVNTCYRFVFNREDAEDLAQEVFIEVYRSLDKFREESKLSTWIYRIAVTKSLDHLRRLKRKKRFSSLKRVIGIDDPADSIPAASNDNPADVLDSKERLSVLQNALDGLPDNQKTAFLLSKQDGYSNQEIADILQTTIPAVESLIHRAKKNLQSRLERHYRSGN
Record form. Attribute: fold repression. Fill in for each entry.
// print number alone

INPUT: Param item = AS04_1609 (protein) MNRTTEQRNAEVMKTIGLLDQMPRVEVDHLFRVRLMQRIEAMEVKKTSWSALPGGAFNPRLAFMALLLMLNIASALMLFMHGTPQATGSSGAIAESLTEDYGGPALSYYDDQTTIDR ; retrieve measured fold repression.
OUTPUT: 7.83

INPUT: Param item = AS02_915 (protein) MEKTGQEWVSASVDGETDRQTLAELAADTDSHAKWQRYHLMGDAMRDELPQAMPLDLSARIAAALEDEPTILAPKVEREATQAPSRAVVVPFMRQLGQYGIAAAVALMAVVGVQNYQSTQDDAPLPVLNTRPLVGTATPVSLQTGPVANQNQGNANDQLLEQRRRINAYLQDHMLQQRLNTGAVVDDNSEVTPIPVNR ; retrieve measured fold repression.
OUTPUT: 3.74

INPUT: Param item = AS16_3622 (protein) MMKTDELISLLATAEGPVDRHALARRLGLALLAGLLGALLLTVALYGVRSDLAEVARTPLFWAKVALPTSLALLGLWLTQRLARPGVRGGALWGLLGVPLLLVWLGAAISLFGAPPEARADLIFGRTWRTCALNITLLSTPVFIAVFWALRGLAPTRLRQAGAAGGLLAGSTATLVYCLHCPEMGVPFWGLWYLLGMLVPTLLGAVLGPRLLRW ; retrieve measured fold repression.
OUTPUT: 1.95

Source of measurements: paper PMC3817407
